Where these numbers come from: the CheMixHub viscosity set

# test-summary: xn = mol fraction of the nth substance listed
# stated-conditions: 298.15 K; 101.33 kPa; x1 = 0.2
± gives the uncertainty stated by the source.
This listing pairs compounds with measured viscosity.

CC(Cl)(Cl)Cl + COCC(C)O :: 1.362 ± 0.013 mPa·s

Query :: What value of measured viscosity is listed for CC(Cl)(Cl)Cl + CC1CCCO1 ?
Result :: 0.5324 ± 0.0055 mPa·s

Query :: What value of measured viscosity is listed for CC(Cl)(Cl)Cl + CCCCCCO ?
Result :: 3.188 ± 0.03 mPa·s

Query :: What value of measured viscosity is listed for CC(Cl)(Cl)Cl + CC(C)=O ?
Result :: 0.3677 ± 0.0042 mPa·s

====

# stated-conditions: 303.15 K; 101 kPa
metric-name: viscosity (mPa·s)
Give just the numeric value; mPa·s need not be written.

CCCCCCCCn1cc[n+](C)c1.[Cl][Fe-]([Cl])([Cl])[Cl] :: 106

Query :: What value of measured viscosity is listed for COC(=O)c1ccccc1C(=O)OC ?
Result :: 11.07

Query :: What value of measured viscosity is listed for CCCC[N+](CCCC)(CCCC)CCCC.[OH-] ?
Result :: 6.49

Query :: What value of measured viscosity is listed for CCCCCBr ?
Result :: 0.709

====

This listing pairs compounds with measured viscosity.
# test-summary: xn = mol fraction of the nth substance listed
# stated-conditions: 298.15 K; 101.33 kPa; x1 = 0.101
Give just the numeric value; mPa·s need not be written.

CC(Cl)(Cl)Cl + CCCOCCC :: 0.4245
CC(Cl)(Cl)Cl + C[N+](=O)[O-] :: 0.6114
CC(Cl)(Cl)Cl + COC(C)=O :: 0.3907
CC(Cl)(Cl)Cl + COCC(C)O :: 1.508

Then there is this compound:
Query :: What value of measured viscosity is listed for CC(Cl)(Cl)Cl + CCCCCCO ?
Result :: 3.824
